// data source = patent US9718837B2

Test system: Human Breast Cancer Cells (MCF-7)
Test: Cell growth inhibition by direct cell counting, MCF-7
Assay type: cell-based
Conditions: Homo sapiens, MCF7; MCF-7 cells; read-out: IG50 MCF-7
Method: Cells were taken out carefully from liquid nitrogen (Frozen pipes), and the cell freezing medium was thawed rapidly in water bath at 37° C. in order to rapidly pass through the temperature range of 0 to 5° C. within which the cell is easily damaged. […] Cell suspensions of a certain density (5×10^4 cells/mL) were plated at 24-well plate, 2 mL/well. […] Then, cells were counted under the microscope. […] Inhibition rate was calculated using the formula: […]
pIC50: −log10 of the molar value.
MEASURED_ENDPOINT: pIC50

[
  {
    "COMPOUND": "C[C@H]1[C@@H](Oc2ccc(/C=C/C(=O)N3CCCC3)cc2)O[C@@H]2O[C@]3(C)CC[C@H]4[C@H](C)CC[C@@H]1[C@@]24OO3 [Example 20]",
    "pIC50": 6.91
  },
  {
    "COMPOUND": "C[C@H]1[C@@H](Oc2ccc(Cn3ccnc3)cc2)O[C@@H]2O[C@]3(C)CC[C@H]4[C@H](C)CC[C@@H]1[C@@]24OO3 [Example 2]",
    "pIC50": 6.68
  },
  {
    "COMPOUND": "C[C@H]1[C@@H](Oc2ccc(CC(=O)N3CCCC3)cc2)O[C@@H]2O[C@]3(C)CC[C@@H]4[C@H](C)CC[C@@H]1[C@@]24OO3 [Example 33]",
    "pIC50": 5.49
  }
]

(a) C[C@H]1[C@@H](Oc2ccc(CC(=O)Nc3ccccc3)cc2)O[C@@H]2O[C@]3(C)CC[C@@H]4[C@H](C)CC[C@@H]1[C@@]24OO3 [Example 47]
(b) C[C@H]1[C@@H](Oc2ccc(/C=C/C(=O)Oc3ccc(/C=C/C(=O)N4CCCCC4)cc3)cc2)O[C@@H]2O[C@]3(C)CC[C@H]4[C@H](C)CC[C@@H]1[C@@]24OO3 [Example 31]
Param metric = pIC50; output whichever of a , b has the minimum value. Give the label under which the chosen entry appears.
a
(a: 5.81, b: 7.20)
